Experiment: Selectivity index, ratio of IC50 for human MCF-10A cells to IC50 for human MCF7 cells
Type: toxicity
Details: MCF-10A cells versus MCF7 cells, read-out: Ratio IC50
Measured selectivity ratio values are reported for all entries that follow.

Known selectivity ratio results, listed for orientation:
compound	selectivity ratio
COc1cc([C@@H]2c3cc4c(cc3[C@@H](O[C@@H]3O[C@@H]5CO[C@@H](C)O[C@H]5[C@H](O)[C@H]3O)[C@H]3COC(=O)[C@H]23)OCO4)cc(OC)c1O [ETOPOSIDE]	3.86
COC(=O)/C=C1\S/C(=N\N=C\c2ccc(OCC(F)(F)F)cc2)N(c2ccccc2)C1=O	1.81
O=S(=O)(Oc1ccc(/C=N/N=c2\scc(-c3ccccc3)n2-c2ccccc2)cc1)C(F)(F)C(F)(F)C(F)(F)C(F)(F)F	39.2

Below: the item to evaluate.
Read off the recorded selectivity ratio for FC(F)(F)COc1ccc(-c2nnc(Nc3ccccc3)s2)cc1
16.9

====

System: SN12C
Experiment: Cytotoxicity against human SN12C cells assessed as growth inhibition at 10 uM after 48 hrs by sulforhodamine B assay
Type: functional
Conditions: read-out: GI
Measured inhibition of growth at 10 µM values are reported for all entries that follow.

Known inhibition of growth at 10 µM results, listed for orientation:
                          chemicalstructure                      valuetype  measurement
0  O=S(=O)(Oc1ccc(-c2nnc(Nc3ccccc3)s2)cc1)C(F)(F)C(F)(F)C(F)(F)C(F)(F)F  inhibition of growth at 10 µM        14.5%
1  COC(=O)/C=C1\S/C(=N\N=C\c2ccc(OCC(F)(F)F)cc2)N(c2ccccc2)C1=O  inhibition of growth at 10 µM        28.6%
2  COC(=O)/C=C1\S/C(=N\N=C\c2ccc(C(F)(F)F)cc2)N(c2ccccc2)C1=O  inhibition of growth at 10 µM        24.1%

Below: the item to evaluate.
Read off the recorded inhibition of growth at 10 µM for FC(F)(F)COc1ccc(-c2nnc(Nc3ccccc3)s2)cc1
13.1%

====

System: ACHN
Experiment: Cytotoxicity against human ACHN cells assessed as growth inhibition at 10 uM after 48 hrs by sulforhodamine B assay
Format: functional
Settings: read-out: GI
valueType: inhibition of growth at 10 µM (%)
State just the number; it will be interpreted in %.

Known inhibition of growth at 10 µM results, listed for orientation:
                          chemicalstructure                      valuetype  resultunits  measurement
0  COC(=O)/C=C1\S/C(=N\N=C\c2ccc(C(F)(F)F)cc2)N(c2ccccc2)C1=O  inhibition of growth at 10 µM            %         40.1
1  COC(=O)/C=C1\S/C(=N\N=C\c2ccc(OS(=O)(=O)C(F)(F)C(F)(F)C(F)(F)C(F)(F)C(F)(F)C(F)(F)C(F)(F)C(F)(F)F)cc2)N(c2ccccc2)C1=O  inhibition of growth at 10 µM            %         11.6
2  COC(=O)/C=C1\S/C(=N\N=C\c2ccc(OCC(F)(F)F)cc2)N(c2ccccc2)C1=O  inhibition of growth at 10 µM            %           24

Below: the item to evaluate.
Read off the recorded inhibition of growth at 10 µM for FC(F)(F)COc1ccc(-c2nnc(Nc3ccccc3)s2)cc1
16.1

====

Biological target: Phosphatidylinositol 4,5-bisphosphate 3-kinase catalytic subunit delta isoform (Homo sapiens)
Sequence (O00329 whole entry, canonical isoform): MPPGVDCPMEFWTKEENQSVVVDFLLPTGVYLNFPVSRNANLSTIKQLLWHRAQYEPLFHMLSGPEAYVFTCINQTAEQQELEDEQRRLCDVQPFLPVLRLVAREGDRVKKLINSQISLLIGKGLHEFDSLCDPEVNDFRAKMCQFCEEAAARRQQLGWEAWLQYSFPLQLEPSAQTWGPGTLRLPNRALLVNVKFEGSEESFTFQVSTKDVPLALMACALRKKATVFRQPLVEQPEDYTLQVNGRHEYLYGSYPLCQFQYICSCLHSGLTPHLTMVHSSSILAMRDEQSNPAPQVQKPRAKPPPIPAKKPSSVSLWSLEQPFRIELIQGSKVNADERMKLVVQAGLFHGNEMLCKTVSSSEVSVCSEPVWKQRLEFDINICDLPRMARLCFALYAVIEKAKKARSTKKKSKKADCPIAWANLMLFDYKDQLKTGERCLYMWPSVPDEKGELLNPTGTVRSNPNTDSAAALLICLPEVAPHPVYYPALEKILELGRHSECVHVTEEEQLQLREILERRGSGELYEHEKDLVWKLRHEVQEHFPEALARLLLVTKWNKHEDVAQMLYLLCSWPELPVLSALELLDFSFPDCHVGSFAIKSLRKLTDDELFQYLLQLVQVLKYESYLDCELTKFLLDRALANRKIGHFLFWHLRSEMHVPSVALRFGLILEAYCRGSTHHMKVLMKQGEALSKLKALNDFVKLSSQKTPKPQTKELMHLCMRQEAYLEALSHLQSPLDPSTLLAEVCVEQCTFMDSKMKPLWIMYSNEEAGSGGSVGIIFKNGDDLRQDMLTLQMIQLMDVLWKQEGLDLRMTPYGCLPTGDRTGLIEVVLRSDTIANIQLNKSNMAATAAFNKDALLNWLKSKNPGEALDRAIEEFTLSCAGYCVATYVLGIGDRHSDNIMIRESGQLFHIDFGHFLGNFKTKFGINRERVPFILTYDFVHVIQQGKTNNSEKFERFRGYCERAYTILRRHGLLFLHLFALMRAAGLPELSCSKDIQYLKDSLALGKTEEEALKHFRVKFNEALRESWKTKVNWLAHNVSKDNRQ
Test: Inhibition of PI3Kdelta (unknown origin) using PIP2 as substrate preincubated for 10 mins followed by substrate addition and measured after 1 hr by ELISA
valueType: pIC50
Scale: pIC50 equals -log10([C]), with [C] in mol/L.

Known pIC50 results, listed for orientation:
>>> print(df.to_string())
                          chemicalstructure  measurement
0   FC(F)(F)COc1ccc(-c2nnc(Nc3ccccc3)s2)cc1         4.13
1  O=S(=O)(Oc1ccc(/C=N/N=c2\scc(-c3ccccc3)n2-c2ccccc2)cc1)C(F)(F)C(F)(F)C(F)(F)C(F)(F)F         5.10
2     O=c1cc(N2CCOCC2)oc2c(-c3ccccc3)cccc12         4.83

Read off the recorded pIC50 for COC(=O)/C=C1\S/C(=N\N=C\c2ccc(OCC(F)(F)F)cc2)N(c2ccccc2)C1=O
3.92

====

Measured pIC50 values are reported for all entries that follow.
Molecular target: Phosphatidylinositol 4,5-bisphosphate 3-kinase catalytic subunit alpha isoform (Homo sapiens, UniProt P42336)
Sequence (P42336 whole entry, canonical isoform): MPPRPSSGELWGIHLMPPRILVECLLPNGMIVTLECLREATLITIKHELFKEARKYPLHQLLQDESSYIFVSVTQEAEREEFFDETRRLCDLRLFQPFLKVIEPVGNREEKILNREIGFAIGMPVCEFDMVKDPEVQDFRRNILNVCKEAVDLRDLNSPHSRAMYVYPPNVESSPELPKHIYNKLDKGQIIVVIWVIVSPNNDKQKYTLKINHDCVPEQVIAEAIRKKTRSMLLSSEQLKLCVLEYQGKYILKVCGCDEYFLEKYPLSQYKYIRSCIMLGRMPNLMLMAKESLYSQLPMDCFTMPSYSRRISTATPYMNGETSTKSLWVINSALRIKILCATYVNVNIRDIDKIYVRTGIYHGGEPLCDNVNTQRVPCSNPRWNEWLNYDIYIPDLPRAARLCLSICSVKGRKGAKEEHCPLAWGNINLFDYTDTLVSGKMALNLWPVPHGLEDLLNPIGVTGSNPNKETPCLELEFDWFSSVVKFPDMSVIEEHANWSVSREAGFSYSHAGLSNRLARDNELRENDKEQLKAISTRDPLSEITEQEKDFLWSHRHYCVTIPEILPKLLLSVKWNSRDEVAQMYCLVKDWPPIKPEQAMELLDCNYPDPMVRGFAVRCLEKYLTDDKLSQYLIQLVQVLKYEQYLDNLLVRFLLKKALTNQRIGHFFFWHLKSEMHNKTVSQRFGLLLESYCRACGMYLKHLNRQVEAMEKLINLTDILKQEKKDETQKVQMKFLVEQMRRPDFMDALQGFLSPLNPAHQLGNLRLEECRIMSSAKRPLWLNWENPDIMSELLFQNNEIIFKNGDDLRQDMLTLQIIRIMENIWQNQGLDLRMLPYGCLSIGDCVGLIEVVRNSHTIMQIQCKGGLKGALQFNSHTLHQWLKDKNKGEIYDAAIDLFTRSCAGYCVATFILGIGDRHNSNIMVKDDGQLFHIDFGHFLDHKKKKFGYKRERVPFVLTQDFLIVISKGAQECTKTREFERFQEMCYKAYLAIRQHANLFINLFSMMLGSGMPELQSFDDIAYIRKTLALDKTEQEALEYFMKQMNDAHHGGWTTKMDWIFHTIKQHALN
Assay: Inhibition of PI3Kalpha (unknown origin) using PIP2 as substrate preincubated for 10 mins followed by substrate addition and measured after 1 hr by ELISA
Scale: pIC50 equals -log10([C]), with [C] in mol/L.

Read off the recorded pIC50 for COC(=O)/C=C1\S/C(=N\N=C\c2ccc(OCC(F)(F)F)cc2)N(c2ccccc2)C1=O
4.11

Read off the recorded pIC50 for FC(F)(F)COc1ccc(-c2nnc(Nc3ccccc3)s2)cc1
4.71

Read off the recorded pIC50 for O=S(=O)(Oc1ccc(/C=N/N=c2\scc(-c3ccccc3)n2-c2ccccc2)cc1)C(F)(F)C(F)(F)C(F)(F)C(F)(F)F
5.24

====

Measured inhibition of growth at 10 µM values are reported for all entries that follow.
Tested on: T47D
Test: Cytotoxicity against human T47D cells assessed as growth inhibition at 10 uM after 48 hrs by sulforhodamine B assay
Assay type: functional
Conditions: read-out: GI
Put down the number, then write its unit next to it.

Known inhibition of growth at 10 µM results, listed for orientation:
                          chemicalstructure                      valuetype  measurement
0  COC(=O)/C=C1\S/C(=N\N=C\c2ccc(OCC(F)(F)F)cc2)N(c2ccccc2)C1=O  inhibition of growth at 10 µM        14.5%
1  COC(=O)/C=C1\S/C(=N\N=C\c2ccc(C(F)(F)F)cc2)N(c2ccccc2)C1=O  inhibition of growth at 10 µM        20.4%
2  O=S(=O)(Oc1ccc(-c2nnc(Nc3ccccc3)s2)cc1)C(F)(F)C(F)(F)C(F)(F)C(F)(F)F  inhibition of growth at 10 µM        14.1%

Read off the recorded inhibition of growth at 10 µM for FC(F)(F)COc1ccc(-c2nnc(Nc3ccccc3)s2)cc1
27.7%

====

Measured pIC50 values are reported for all entries that follow.
Molecular target: Phosphatidylinositol 4,5-bisphosphate 3-kinase catalytic subunit beta isoform (Homo sapiens)
Sequence (P42338 whole entry, canonical isoform): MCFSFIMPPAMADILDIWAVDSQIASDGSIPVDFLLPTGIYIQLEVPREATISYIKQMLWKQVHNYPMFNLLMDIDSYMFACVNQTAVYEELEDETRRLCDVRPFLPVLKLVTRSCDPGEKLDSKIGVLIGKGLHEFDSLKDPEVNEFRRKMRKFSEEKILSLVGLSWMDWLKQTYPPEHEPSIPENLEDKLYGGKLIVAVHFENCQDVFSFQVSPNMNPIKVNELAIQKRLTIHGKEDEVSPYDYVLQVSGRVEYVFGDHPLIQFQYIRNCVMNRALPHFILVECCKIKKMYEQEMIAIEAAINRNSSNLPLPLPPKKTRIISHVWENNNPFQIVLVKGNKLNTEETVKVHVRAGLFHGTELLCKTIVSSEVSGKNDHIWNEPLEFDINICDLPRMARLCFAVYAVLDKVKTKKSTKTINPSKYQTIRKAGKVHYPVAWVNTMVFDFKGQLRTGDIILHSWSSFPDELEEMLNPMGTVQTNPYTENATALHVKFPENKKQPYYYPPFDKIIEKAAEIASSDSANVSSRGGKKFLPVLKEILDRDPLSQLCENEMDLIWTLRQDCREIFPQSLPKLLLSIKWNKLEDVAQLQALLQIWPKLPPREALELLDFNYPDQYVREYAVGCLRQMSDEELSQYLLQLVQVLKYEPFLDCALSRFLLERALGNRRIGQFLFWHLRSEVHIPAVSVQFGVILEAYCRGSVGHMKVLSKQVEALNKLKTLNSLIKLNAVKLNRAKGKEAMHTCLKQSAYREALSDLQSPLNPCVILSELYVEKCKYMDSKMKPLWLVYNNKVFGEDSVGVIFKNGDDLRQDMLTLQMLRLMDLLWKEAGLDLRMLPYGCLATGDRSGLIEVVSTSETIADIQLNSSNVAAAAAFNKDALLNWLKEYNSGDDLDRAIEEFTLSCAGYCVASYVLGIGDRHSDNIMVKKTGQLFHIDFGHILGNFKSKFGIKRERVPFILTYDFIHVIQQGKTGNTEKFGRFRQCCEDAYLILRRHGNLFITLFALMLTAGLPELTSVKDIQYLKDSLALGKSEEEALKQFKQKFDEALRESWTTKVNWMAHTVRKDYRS
Assay: Inhibition of PI3Kbeta (unknown origin) using PIP2 as substrate preincubated for 10 mins followed by substrate addition and measured after 1 hr by ELISA
Scale: pIC50 equals -log10([C]), with [C] in mol/L.

>>> df
                          chemicalstructure  valuetype  measurement
0  COC(=O)/C=C1\S/C(=N\N=C\c2ccc(OCC(F)(F)F)cc2)N(c2ccccc2)C1=O      pIC50         4.27

Read off the recorded pIC50 for O=S(=O)(Oc1ccc(/C=N/N=c2\scc(-c3ccccc3)n2-c2ccccc2)cc1)C(F)(F)C(F)(F)C(F)(F)C(F)(F)F
5.64

Read off the recorded pIC50 for FC(F)(F)COc1ccc(-c2nnc(Nc3ccccc3)s2)cc1
4.51
